- assay-explanation: Plasmodium falciparum growth inhibition, primary screen, strain 3D7, DAPI fluorescence, 100 nL (AID 1184);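 also: parasites grown inside human red blood cells in medium with human serum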
- condition-description: P. falciparum 3D7 growth, 3 d, higher = more signal
A collection of compounds and their measured z-score
observation-type: z-score

compound	meas-value
COCCCNC(=O)[C@@]1(c2ccc([N+](=O)[O-])cc2)CC(=O)N(CC23CC4CC(CC(C4)C2)C3)[C@@H]1c1ccc(CO)cc1I	-1.13
C=CCC(OC(C)=O)[C@@H]1[C@@H](N(Cc2ccc(-c3ccccc3)cc2)C(=O)c2ccc(C)cc2)c2cc(OCCCO)ccc2N1C(=O)Cc1ccc2ccccc2c1 (some centres not stated)	-0.481
CCOC(=O)C1=CC[C@@H](c2ccccc2)N(S(=O)(=O)c2ccc(C)cc2)[C@H]1C=Cc1ccccc1	-2.01
CN(C)C(=O)[C@@]1(CCC(=O)OC(C)(C)C)N=C(c2ccc(OCCCO)cc2)O[C@H]1c1ccccc1CN=[N+]=[N-]	-2.32
COCC1C2CC[C@H]3C(OCc4ccc(OC)cc4)OC[C@]4(C)[C@H]3C2=C(CN4C(=O)OC(C)(C)C)[C@H](C)C1COC (some centres not stated)	-0.821
CN(C)CCCNC(=O)[C@@H]1c2ccccc2C(=O)N(C2CCCCC2)[C@H]1c1ccc(CO)cc1	-1.99
CCOC(=O)C[C@H]1[C@H](OC(=O)c2cc3ccccc3oc2=O)[C@@H](NC(=O)c2ccc3ccccc3c2)c2cc(OCCCO)ccc2N1C(=O)Cc1ccc(OC)cc1	-0.791
